protocol-conditions: 278.15 K; 101 kPa; Liquid; Sing-around technique in a fixed-path interferometer
assay-readout: speed of sound (m/s)
Give just the number in m/s; leave the unit off.

[in] Give the value of speed of sound reported for the following: CCCC[n+]1ccn(C)c1.O=S(=O)([N-]S(=O)(=O)C(F)(F)F)C(F)(F)F
[out] 1273.8

[in] Give the value of speed of sound reported for the following: CCCCCC[n+]1ccn(C)c1.O=S(=O)([N-]S(=O)(=O)C(F)(F)F)C(F)(F)F
[out] 1274.6

[in] Give the value of speed of sound reported for the following: CCO [ethanol]
[out] 1212.9

[in] Give the value of speed of sound reported for the following: CCn1cc[n+](C)c1.O=S(=O)([N-]S(=O)(=O)C(F)(F)F)C(F)(F)F
[out] 1284.9

----------
# speed of sound per entry
protocol-conditions: 318.15 K; 101 kPa; Liquid; Sing-around technique in a fixed-path interferometer
Give just the number in m/s; leave the unit off.

Example compounds with recorded speed of sound:
CCCC[n+]1ccn(C)c1.O=S(=O)([N-]S(=O)(=O)C(F)(F)F)C(F)(F)F :: 1184
CCCCCC[n+]1ccn(C)c1.O=S(=O)([N-]S(=O)(=O)C(F)(F)F)C(F)(F)F :: 1182
CCn1cc[n+](C)c1.O=S(=O)([N-]S(=O)(=O)C(F)(F)F)C(F)(F)F :: 1196.6

[in] Give the value of speed of sound reported for the following: CCO [ethanol]
[out] 1075.7

----------
# viscosity per entry
protocol-conditions: 318.15 K; 101 kPa; Liquid; Falling or rolling sphere viscometry
Give just the number in mPa·s; leave the unit off.

CCCC[n+]1ccn(C)c1.O=S(=O)([N-]S(=O)(=O)C(F)(F)F)C(F)(F)F :: 24.36

[in] Give the value of viscosity reported for the following: CCCCCC[n+]1ccn(C)c1.O=S(=O)([N-]S(=O)(=O)C(F)(F)F)C(F)(F)F
[out] 30.22

[in] Give the value of viscosity reported for the following: CCn1cc[n+](C)c1.O=S(=O)([N-]S(=O)(=O)C(F)(F)F)C(F)(F)F
[out] 17.32

[in] Give the value of viscosity reported for the following: CCO
[out] 0.77

----------
# viscosity per entry
protocol-conditions: 298.15 K; 101 kPa; Liquid; Falling or rolling sphere viscometry
Give just the number in mPa·s; leave the unit off.

Example molecules with recorded viscosity:
CCCC[n+]1ccn(C)c1.O=S(=O)([N-]S(=O)(=O)C(F)(F)F)C(F)(F)F :: 51.22
CCCCCC[n+]1ccn(C)c1.O=S(=O)([N-]S(=O)(=O)C(F)(F)F)C(F)(F)F :: 70.46
CCO :: 1.08

Pending molecule:
[in] Give the value of viscosity reported for the following: CCn1cc[n+](C)c1.O=S(=O)([N-]S(=O)(=O)C(F)(F)F)C(F)(F)F
[out] 32.02

----------
protocol-conditions: 338.15 K; 101 kPa; Liquid; Vibrating tube method
# mass density per entry
Give just the number in kg/m3; leave the unit off.

Example compounds with recorded mass density:
CCO [ethanol] :: 749.54
CCn1cc[n+](C)c1.O=S(=O)([N-]S(=O)(=O)C(F)(F)F)C(F)(F)F :: 1477.86
CCCCCC[n+]1ccn(C)c1.O=S(=O)([N-]S(=O)(=O)C(F)(F)F)C(F)(F)F :: 1335.25

Pending compound:
[in] Give the value of mass density reported for the following: CCCC[n+]1ccn(C)c1.O=S(=O)([N-]S(=O)(=O)C(F)(F)F)C(F)(F)F
[out] 1396.35
